Test: Solubility data for Compound 1 drug substance
Format: physicochemical
Settings: aqueous buffer; 50 mM pH 7.4 phosphate buffer solution, pH 7.40
RECORDED METRIC: solubility (µg/mL)

[[record]]
molecule = "CCN(C)S(=O)(=O)Nc1ccc(F)c(Oc2ccc3ncn([C@H]4COC5(CCN(C(=O)CC6(O)CCN(c7cc8c(cc7F)c(N7CCC(=O)NC7=O)nn8C)CC6)CC5)C4)c(=O)c3c2)c1C#N [Compound 1]"
recorded_metric = "solubility"
u = "µg/mL"
endpoint_value = 8790


----------
Test: Solubility data for Compound 1 drug substance
Type: physicochemical
Details: simulated gastric fluid; pH 2.0 HCl/KCl solution, pH 1.95
RECORDED METRIC: solubility (µg/mL)

[[record]]
compound = "CCN(C)S(=O)(=O)Nc1ccc(F)c(Oc2ccc3ncn([C@H]4COC5(CCN(C(=O)CC6(O)CCN(c7cc8c(cc7F)c(N7CCC(=O)NC7=O)nn8C)CC6)CC5)C4)c(=O)c3c2)c1C#N [Compound 1]"
recorded_metric = "solubility"
u = "µg/mL"
endpoint_value = 4350

